Recorded CC50 for the following compounds
# protocol: Cytotoxicity against human RD cells assessed as reduction in cell viability by neutral red staining based CPE assay
# Format: toxicity
# experimental setup: RD cells

smiles representation: CC(C)(C)[C@H](NC(=O)CC12CC3CC(CC(C3)C1)C2)C(=O)N1C[C@@H]2CCC[C@@H]2[C@H]1C(=O)N[C@H](C(=O)C(=O)NC1CC1)C1CCCCC1
metric name: CC50
observed: > 150 µM
//
smiles representation: CCC[C@H](NC(=O)[C@@H]1[C@H]2CCC[C@H]2CN1C(=O)[C@@H](NC(=O)Cc1ccccc1)C(C)(C)C)C(=O)C(=O)NC1CC1
metric name: CC50
observed: > 150 µM
//
smiles representation: CCC[C@H](NC(=O)[C@@H]1[C@H]2CCC[C@H]2CN1C(=O)[C@@H](NC(=O)NC12CC3CC(CC(C3)C1)C2)C(C)(C)C)C(=O)C(=O)NC1CC1
metric name: CC50
observed: 42.2 µM
//
smiles representation: CCC[C@H](NC(=O)[C@@H]1[C@H]2CCC[C@H]2CN1C(=O)[C@@H](NC(=O)/C=C/c1ccccc1)C(C)(C)C)C(=O)C(=O)NC1CC1
metric name: CC50
observed: > 150 µM
//
smiles representation: CC(C)C[C@H](NC(=O)[C@@H]1[C@H]2CCC[C@H]2CN1C(=O)[C@@H](NC(=O)CC12CC3CC(CC(C3)C1)C2)C(C)(C)C)C(=O)C(=O)NC1CC1
metric name: CC50
observed: 26.3 µM

Prompt line: Item CC(C)(C)[C@H](NC(=O)[C@@H]1[C@H]2CCC[C@H]2CN1C(=O)[C@@H](NC(=O)CC12CC3CC(CC(C3)C1)C2)C(C)(C)C)C(=O)C(=O)NC1CC1 : provide CC50
Response line: > 150 µM

Origin of values: ChEMBL document CHEMBL5370639
